Tested on: CCRIS mutagenicity, Ames/micronucleus/aberration tests
Experiment: CCRIS mutagenicity studies
Details: Test System: AMES SALMONELLA TYPHIMURIUM; Strain/Indicator: TA98; Metabolic Activation: RAT, LIVER, S-9, AROCLOR 1254 (30%); Method: PREINCUBATION
Source text: The CCRIS database contains chemical records with carcinogenicity, mutagenicity, tumor promotion, and tumor inhibition test results. It was developed by the National Cancer Institute (NCI). Data are derived from studies cited in primary journals, current awareness tools, NCI reports, and other sources. Test results have been reviewed by experts in carcinogenesis and mutagenesis. CCRIS provides historical information from the years 1985 - 2011. It is no longer updated. […]
Calls of active or inactive are those of the source. How the calls were made is not given here.
Possible outcomes: active, inactive

> print(dat)
                                    compound  class.label
 1  CC(CCl)OP(=O)(OC(C)CCl)OC(C)CCl (stereo unspecified)     inactive
 2  CCCCCCCCCCCC(=O)[O][Sn]([CH2]CCC)([CH2]CCC)[O]C(=O)CCCCCCCCCCC     inactive
 3                              CCCCCCC(=O)O     inactive
 4      COc1ccc(N=[N+]([O-])c2ccc(OC)cc2)cc1     inactive
 5                     S=c1nc[nH]c2nc[nH]c12     inactive
 6                                  CC1CCCC1     inactive
 7  CCCCCCCCCCCCCCCCC1CO1 (stereo unspecified)     inactive
 8                          CN(C)c1ccc(N)cc1       active
 9  CCN(CC)c1ccc2c(-c3ccccc3C(=O)O)c3ccc(=[N+](CC)CC)cc-3oc2c1     inactive
10                          Clc1cccc2ccccc12     inactive
11                                     ClCBr       active
